Measurement Target: UniProt:P51449
Test Protocol: RORγ-Ligand Binding Domain (LBD) TR-FRET Assay Protocol II
Format: biochemical
Measurement Conditions: purified RORγ-LBD, SRC1 peptide, overnight at 4° C.
Assignment: determine reported pEC50 for the given molecules.
Numbers only, as −log10 of the molar value.

>>> print(df.to_string())
                                   molecule  measurement_target  property_name  assay_result
0  Cc1cccc(S(=O)(=O)N2CC(N(C)C)COc3ncc(NC(=O)c4c(Cl)cccc4Cl)cc32)c1 (stereo not shown)      UniProt:P51449          pEC50          7.01
1  CC1COc2ncc(NC(=O)c3c(F)cccc3Cl)cc2N1S(=O)(=O)c1ccc(F)cc1 (stereo not shown)      UniProt:P51449          pEC50          7.18
2  O=C(Nc1cnc2c(c1)N(S(=O)(=O)c1cccc(C(F)(F)F)c1)C[C@@H](N1CCOC1=O)C2)c1c(Cl)cccc1Cl      UniProt:P51449          pEC50          7.38
3  Cc1nn(C(F)F)cc1S(=O)(=O)N1C[C@@H](NC(=O)OC(C)C)Cc2ncc(NC(=O)c3c(F)cccc3Cl)cc21      UniProt:P51449          pEC50          8.05
4  C[C@H]1CN(S(=O)(=O)c2ccc(F)cc2)c2cc(NC(=O)c3c(F)cccc3Cl)cnc2O1      UniProt:P51449          pEC50          7.20
5  C[C@H]1CN(S(=O)(=O)c2cccc(C#N)c2)c2cc(NC(=O)c3c(F)cccc3Cl)cnc2O1      UniProt:P51449          pEC50          7.15

# input for lookup
Incoming: What value of measured pEC50 is listed for Cc1cccc(S(=O)(=O)N2C[C@H](C)Oc3ncc(NC(=O)c4c(F)cccc4Cl)cc32)c1 ?
Outgoing: 7.66

###

Assignment: determine reported pEC50 for the given compounds.
Measurement Target: RORγ-LBD (Homo sapiens (Human))
Sequence (P51449 269-508): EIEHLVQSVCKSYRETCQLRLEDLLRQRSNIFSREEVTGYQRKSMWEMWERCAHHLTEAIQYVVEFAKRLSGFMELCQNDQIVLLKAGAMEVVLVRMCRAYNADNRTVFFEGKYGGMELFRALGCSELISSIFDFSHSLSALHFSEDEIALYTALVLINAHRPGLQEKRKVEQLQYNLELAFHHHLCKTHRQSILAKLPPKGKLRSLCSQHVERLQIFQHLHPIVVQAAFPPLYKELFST
Test Protocol: RORγ-Ligand Binding Domain (LBD) TR-FRET Assay Protocol II
Assay type: biochemical
Measurement Conditions: purified RORγ-LBD, SRC1 peptide, overnight at 4° C.
One number for each entry, as −log10 of the molar value.

For every item below, please supply its pEC50.
1. Cc1cccc(S(=O)(=O)N2CC(N)COc3ncc(NC(=O)C(F)(F)F)cc32)c1 (stereo not shown)
2. CC(=O)NC1COc2ncc(NC(=O)c3c(Cl)cccc3Cl)cc2N(S(=O)(=O)c2cccc(C)c2)C1 (stereo not shown)
3. Cc1cccc(S(=O)(=O)N2CC(N)COc3ncc(NC(=O)c4c(Cl)cccc4Cl)cc32)c1 (stereo not shown)
4. CC(=O)N[C@@H]1Cc2ncc(NC(=O)c3c(Cl)cccc3Cl)cc2N(S(=O)(=O)c2cccc(C)c2)C1
5. CC(C)(C)OC(=O)N[C@H]1Cc2ncc(NC(=O)c3c(Cl)cccc3Cl)cc2N(S(=O)(=O)c2cccc(C(F)(F)F)c2)C1

Outgoing:
1. 7.89
2. 6.54
3. 6.76
4. 7.74
5. 7.77

For every item below, please supply its pEC50.
1. NC1Cc2ncc(NC(=O)c3c(Cl)cccc3Cl)cc2N(S(=O)(=O)c2cccc(C3CC3)c2)C1 (stereo not shown)
2. Cc1cccc(S(=O)(=O)N2C[C@H](C)Oc3ncc(NC(=O)C(C)c4ccccc4C)cc32)c1 (stereo partly shown)

Outgoing:
7.42
7.24
